quantity.measured: melting point (°C)

(I) O=c1cnn(-c2ccc(C(c3ccc(Cl)cc3)c3nc(-c4ccccc4)cs3)c(Cl)c2)c(=O)[nH]1 (racemic)
(II) CN(C)Cc1sc(C(c2ccc(Cl)cc2)c2c(Cl)cc(-n3ncc(=O)[nH]c3=O)cc2Cl)nc1-c1ccccc1F (racemic)
(III) NCc1sc(C(c2ccc(Cl)cc2)c2c(Cl)cc(-n3ncc(=O)[nH]c3=O)cc2Cl)nc1-c1ccccc1 (racemic)
Q) Hey, quick one: sort these by melting point, largest value first please. Returns: the labels listed in the requested order.
A) II, III, I

---

# Test system: IL-5 production
# test.method.notes: In vitro inhibition of IL-5 production in human blood (phytohemagglutinin-stimulated whole blood, ELISA);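 note: values marked with an asterisk were tested at 10 µM and unmarked values at 1 µM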
# Format: cell-based
# experimental.parameters: test dose 1×10^−6 M, 48 hours
Reported % inh. (percentage inhibition of IL-5 production) is given for each of the following compounds.
Unit % implied. Number only.

Example entries and their recorded answers appear below.
compound="COC1CCN(Cc2sc(C(c3ccc(Cl)cc3)c3c(Cl)cc(-n4ncc(=O)[nH]c4=O)cc3Cl)nc2-c2ccccc2)CC1.Cl.O (racemic)" numeric_result=81
compound="O=c1cnn(-c2ccc(C(c3ccc(Cl)cc3)c3ncc(-c4ccccc4)o3)c(Cl)c2)c(=O)[nH]1 (racemic)" numeric_result=63
compound="O=c1cnn(-c2ccc(C(c3ccc(Cl)cc3)c3nc(-c4ccccc4)no3)c(Cl)c2)c(=O)[nH]1 (racemic)" numeric_result=52
compound="Cc1cccc(-c2nc(C(c3ccc(Cl)cc3)c3c(Cl)cc(-n4ncc(=O)[nH]c4=O)cc3Cl)cs2)c1 (racemic)" numeric_result=86
compound="Cc1nc(-c2ccc(Cl)cc2)c(C(c2ccc(Cl)cc2)c2ccc(-n3ncc(=O)[nH]c3=O)cc2Cl)s1 (racemic)" numeric_result=89

Lab book: % inh. (percentage inhibition of IL-5 production) of O=c1cnn(-c2cc(Cl)c(C(c3ccc(Cl)cc3)c3nc(-c4ccccc4)c(CN4CCC(N5CCCCC5)CC4)s3)c(Cl)c2)c(=O)[nH]1 (racemic) noted as 92

Lab book: % inh. (percentage inhibition of IL-5 production) of CN1CCN(C(=O)c2sc(C(c3ccc(Cl)cc3)c3c(Cl)cc(-n4ncc(=O)[nH]c4=O)cc3Cl)nc2-c2ccccc2)CC1 (racemic) noted as 35

Lab book: % inh. (percentage inhibition of IL-5 production) of O=C(O)Cc1sc(C(c2ccc(Cl)cc2)c2c(Cl)cc(-n3ncc(=O)[nH]c3=O)cc2Cl)nc1-c1ccccc1 (racemic) noted as 27

Lab book: % inh. (percentage inhibition of IL-5 production) of Cc1cc(NC(c2ccc(Cl)cc2)c2ccc(-n3ncc(=O)[nH]c3=O)cc2Cl)no1 (racemic) noted as 31

Lab book: % inh. (percentage inhibition of IL-5 production) of Cc1nc(-c2ccccc2)sc1C(c1ccc(Cl)cc1)c1c(Cl)cc(-n2ncc(=O)[nH]c2=O)cc1Cl (racemic) noted as 81

Lab book: % inh. (percentage inhibition of IL-5 production) of O=c1cnn(-c2cc(Cl)c(C(Sc3ncccn3)c3ccc(Cl)c(C(F)(F)F)c3)c(Cl)c2)c(=O)[nH]1 (racemic) noted as 96

Lab book: % inh. (percentage inhibition of IL-5 production) of O=c1cnn(-c2cc(Cl)c(C(c3ccc(Cl)cc3)c3nc(-c4ccccc4Cl)cs3)c(Cl)c2)c(=O)[nH]1 (racemic) noted as 90

Lab book: % inh. (percentage inhibition of IL-5 production) of Cc1nnc(C(c2ccc(Cl)cc2)c2c(Cl)cc(-n3ncc(=O)[nH]c3=O)cc2Cl)o1 (racemic) noted as 63

Lab book: % inh. (percentage inhibition of IL-5 production) of O=c1cnn(-c2cc(Cl)c(C(c3ccc(Cl)cc3)c3nnc(COc4ccccc4Cl)o3)c(Cl)c2)c(=O)[nH]1 (racemic) noted as 58

Lab book: % inh. (percentage inhibition of IL-5 production) of O=c1cnn(-c2ccc(C(SC3=NCCS3)c3ccc(Cl)cc3)c(Cl)c2)c(=O)[nH]1 (racemic) noted as 70
